- Assay Target: Beta-N-acetyl-D-hexosaminidase-A/B (Homo sapiens, UniProt P07686+P06865)
- Sequence (P07686 whole entry): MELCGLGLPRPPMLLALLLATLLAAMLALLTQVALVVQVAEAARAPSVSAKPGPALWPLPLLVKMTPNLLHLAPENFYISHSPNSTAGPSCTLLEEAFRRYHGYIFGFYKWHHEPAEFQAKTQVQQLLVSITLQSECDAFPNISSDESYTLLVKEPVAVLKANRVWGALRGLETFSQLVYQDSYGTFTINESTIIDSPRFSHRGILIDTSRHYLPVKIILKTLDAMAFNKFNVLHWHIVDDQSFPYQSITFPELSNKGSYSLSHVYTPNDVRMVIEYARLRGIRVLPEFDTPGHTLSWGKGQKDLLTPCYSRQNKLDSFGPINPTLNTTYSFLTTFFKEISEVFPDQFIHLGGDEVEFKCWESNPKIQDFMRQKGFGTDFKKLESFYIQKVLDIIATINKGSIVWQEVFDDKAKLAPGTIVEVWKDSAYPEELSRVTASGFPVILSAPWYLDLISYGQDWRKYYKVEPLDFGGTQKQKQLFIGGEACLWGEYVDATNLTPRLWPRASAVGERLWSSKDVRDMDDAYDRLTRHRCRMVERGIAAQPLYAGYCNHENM
- Sequence (P06865 whole entry): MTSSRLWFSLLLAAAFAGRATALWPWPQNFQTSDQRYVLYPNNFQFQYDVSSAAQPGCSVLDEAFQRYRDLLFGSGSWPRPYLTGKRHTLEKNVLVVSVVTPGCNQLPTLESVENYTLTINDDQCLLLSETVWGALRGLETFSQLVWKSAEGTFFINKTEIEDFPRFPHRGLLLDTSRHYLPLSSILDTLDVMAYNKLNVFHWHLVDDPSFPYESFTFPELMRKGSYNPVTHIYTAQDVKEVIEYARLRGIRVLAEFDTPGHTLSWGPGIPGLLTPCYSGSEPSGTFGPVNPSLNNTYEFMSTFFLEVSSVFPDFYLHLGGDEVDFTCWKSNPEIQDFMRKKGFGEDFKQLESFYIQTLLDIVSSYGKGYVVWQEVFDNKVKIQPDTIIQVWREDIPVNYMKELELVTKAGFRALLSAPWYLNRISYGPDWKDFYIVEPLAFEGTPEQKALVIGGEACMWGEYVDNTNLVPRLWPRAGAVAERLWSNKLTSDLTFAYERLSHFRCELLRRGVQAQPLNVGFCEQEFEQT
- Assay Name: Inhibition of human beta-N-acetyl-D-hexosaminidase-A/B using 4-Methylumbelliferyl N-acetyl-beta-D-glucosaminide as substrate incubated for 10 mins prior to substrate addition by spectrofluorometric analysis
- Format: protein assay
Reported Ki values for a set of compounds

| Structure Smiles | Unit Abbrev | Ki |
| --- | --- | --- |
| COc1cccc(OCCCNCCN2C(=O)c3cccc4cccc(c34)C2=O)c1 | nM | 4390 |
| NCCCCN1C(=O)c2cccc3cccc(c23)C1=O | nM | 61740 |
| COc1ccc(NCCNCCN2C(=O)c3cccc4cccc(c34)C2=O)c(OC)c1 | nM | 4630 |
| COc1ccc(CNCCN2C(=O)c3cccc4cccc(c34)C2=O)cc1OC | nM | 4990 |
| COc1ccc(CNCCN2C(=O)c3cccc4cccc(c34)C2=O)cc1 | nM | 630 |
| COc1ccc(NCCNCCN2C(=O)c3cccc4cccc(c34)C2=O)cc1 | nM | 1080 |
| NCCN1C(=O)c2cccc3cccc(c23)C1=O | nM | 2090 |
| O=C1c2cccc3cccc(c23)C(=O)N1CCNCCOc1ccc2c(c1)OCO2 | nM | 3000 |
| CN(C)CCN1C(=O)c2cccc3cccc(c23)C1=O | nM | 2810 |
| COc1ccc(OCCCNCCN2C(=O)c3cccc4cccc(c34)C2=O)cc1 | nM | 1230 |
| O=C1c2cccc3cccc(c23)C(=O)N1CCO | nM | 30870 |

Origin of the recorded values: ChEMBL document CHEMBL2384927
